Test system: human SMAD7 mRNA
ASSAY INFO: Dose-dependent inhibition of human SMAD7 mRNA expression in Hep3B cells (Example 3, Study 1 and 2)
Format: cell-based
DETAILS: 2220 nM, electroporation, approximately 16 hours, Study 2
Strand notation (5' to 3'): a small letter for the sugar, then the base; units joined by * are phosphorothioate-linked, units joined directly phosphodiester-linked; [ ] holds rarer units or linkages, { } end groups; capitals alone tell only the bases. k = constrained ethyl (cEt); [5mC] = 5-methylcytosine; d = 2'-deoxy (DNA)
EXPERIMENTAL ENDPOINT: % inhibition of SMAD7 mRNA expression (%)
Your answer is read as %, so omit the unit and give the number.

Answered examples (2):
798987 (antisense kA*kA*kT*dG*dA*dT*dG*dA*d[5mC]*d[5mC]*dG*d[5mC]*d[5mC]*k[5mC]*k[5mC]*k[5mC]) [compound 798987]: 0
799854 (kG*k[5mC]*k[5mC]*dA*dA*dG*dT*dG*dT*d[5mC]*d[5mC]*dA*dT*k[5mC]*kA*kA; antisense) [compound 799854]: 56

Now for the substance whose % inhibition of SMAD7 mRNA expression we want.
Query string: Could you share which % inhibition of SMAD7 mRNA expression value was measured for 830131 (antisense k[5mC]*k[5mC]*k[5mC]*dA*d[5mC]*d[5mC]*dT*d[5mC]*d[5mC]*dG*dA*dG*dG*k[5mC]*kA*k[5mC]) [compound 830131] ?
Result string: 48
